study.system: T1, human LAG3 (human, UniProt P18627 29-450, limits assumed)
T1 construct: also called hLAG3
T1 sequence: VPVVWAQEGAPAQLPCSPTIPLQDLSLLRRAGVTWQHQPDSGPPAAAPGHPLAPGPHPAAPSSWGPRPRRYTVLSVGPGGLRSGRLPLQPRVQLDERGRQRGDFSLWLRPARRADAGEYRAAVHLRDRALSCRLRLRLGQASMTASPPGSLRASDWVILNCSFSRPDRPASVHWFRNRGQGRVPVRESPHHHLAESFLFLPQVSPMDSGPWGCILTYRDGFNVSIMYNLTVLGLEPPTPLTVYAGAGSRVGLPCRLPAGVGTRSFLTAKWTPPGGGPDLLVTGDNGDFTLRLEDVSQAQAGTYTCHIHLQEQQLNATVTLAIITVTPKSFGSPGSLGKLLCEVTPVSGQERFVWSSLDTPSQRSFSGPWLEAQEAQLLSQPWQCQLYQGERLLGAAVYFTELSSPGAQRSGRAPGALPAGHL
test.summary: BLI (Octet) as in Examples 1-4, His-tagged VHH, human LAG3
measurement.name: kon (M⁻¹ s⁻¹)

P. LG6 (VHH, not shown: C-terminal His-tag) VHH: EVQLVESGGGLVQAGGSLRLSCAVSGSIFSISTMGWYRQAPGKQRELVASITARGSADYADSVKGRFTISRDNAKNTVYLQMSSLKPEDTAVYYCNTDTRSTLYHYSWGQGTQVTVSS
Q. LG99 (VHH, not shown: C-terminal His-tag) VHH: EVQLLESGGGLVQPGGSLRLSCAASGSTIDDYPMSWFRQAPGKGREGVAAIDDSDESTYYADSVKGRFTISRDNSKNTLYLQMNSLRAEDTAVYYCARGALFMIDGVDVFLTYYFEFWGQGTLVTVSS
[in] Between the two listed entries P and Q , which has its kon at the higher number? State the label of the item chosen.
[out] Q
